Assay system: GFS complex with NADPH4 (Homo sapiens, UniProt Q13630)
Construct: made in house; host or cells: E. coli Rosetta 2(DE3)
Sequence (Q13630 8-321, one chain of several): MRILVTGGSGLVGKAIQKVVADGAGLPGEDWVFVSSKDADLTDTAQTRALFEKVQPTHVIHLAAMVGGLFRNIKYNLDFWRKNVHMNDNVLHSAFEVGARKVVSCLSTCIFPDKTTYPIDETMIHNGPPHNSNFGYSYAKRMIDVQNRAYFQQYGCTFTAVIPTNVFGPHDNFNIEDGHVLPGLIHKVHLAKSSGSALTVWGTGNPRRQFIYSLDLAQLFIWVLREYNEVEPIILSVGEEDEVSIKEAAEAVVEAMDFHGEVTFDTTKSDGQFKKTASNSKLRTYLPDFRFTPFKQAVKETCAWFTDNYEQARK
Procedure summary: Stopped-flow transient kinetic analysis of binding of GDP-L-fucose (fluorescence quenching)
Condition: global simulation fit; range 3–12 μM; read-out: Kd (two-step binding)
Attribute measured: pKd
Numbers only, as −log10 of the molar value.

Enquiry: Param item = CC1OC(OP(=O)(O)OP(=O)(O)OCC2OC(n3cnc4c(=O)[nH]c(N)nc43)C(O)C2O)C(O)C(O)C1O (stereo not shown) ; retrieve measured pKd.
Return: 5.15

====

Assay system: enzyme/NADP+ (GFS/NADP+ complex) (Homo sapiens, UniProt Q13630)
Sequence (Q13630 8-321, one chain of several): as above
Procedure summary: Fluorescence titration, equilibrium binding (quenching of intrinsic protein fluorescence)
Attribute measured: Kd (µM)
Answers are plain numbers, in µM.

Enquiry: I have this compound here, CC1OC(OP(=O)(O)OP(=O)(O)OCC2OC(n3cnc4c(=O)[nH]c(N)nc43)C(O)C2O)C(O)C(O)C1O (stereo not shown) , and I need its recorded Kd.
Return: 13

====

Assay system: enzyme/NADPH4 (GFS/NADPH4 complex) (Homo sapiens, UniProt Q13630)
Sequence (Q13630 8-321, one chain of several): as above
Procedure summary: Fluorescence titration, equilibrium binding (quenching of intrinsic protein fluorescence)
Attribute measured: pKd
Answers are plain numbers, as −log10 of the molar value.

Enquiry: May I ask what pKd has been recorded for CC1OC(OP(=O)(O)OP(=O)(O)OCC2OC(n3cnc4c(=O)[nH]c(N)nc43)C(O)C2O)C(O)C(O)C1O (stereo not shown) ?
Return: 5.96

// data source = paper PMC12362431
